tested on: Bacillus subtilis (EC1524); assay: microbe, parasite or virus in culture; assay type: cell-based; details: MH broth, 35° C., 20-24 hours
# note: exactly 0.8 µg/mL is not below, so it is condition not met; use condition met for MIC strictly under it

CC(C)=CCC[C@H](C)CC(=O)NC1C(OC2OC(C[C@@H](O)[C@H]3O[C@@H](n4ccc(=O)[nH]c4=O)[C@H](O)[C@@H]3O)C(O)C(O)[C@H]2NC(=O)C[C@@H](C)CCC=C(C)C)OC(CO)[C@@H](O)C1O (stereo partly shown) [Compound E1, Di-N-citronoyl-tunicamycin]
condition not met
CCCCCCCCCCC(=O)NC1C(OC2OC(C[C@@H](O)[C@H]3O[C@@H](n4ccc(=O)[nH]c4=O)[C@H](O)[C@@H]3O)C(O)C(O)[C@H]2NC(=O)CCCCCCCCCC)OC(CO)[C@@H](O)C1O (stereo partly shown)
condition not met
CCCCCCC(=O)NC1C(OC2OC(C[C@@H](O)[C@H]3O[C@@H](n4ccc(=O)[nH]c4=O)[C@H](O)[C@@H]3O)C(O)C(O)[C@H]2NC(=O)CCCCCC)OC(CO)[C@@H](O)C1O (stereo partly shown) [Compound E2, Di-N-heptanoyl tunicamycin]
condition not met
CCCCCCCCC(=O)NC1C(OC2OC(C[C@@H](O)[C@H]3O[C@@H](n4ccc(=O)[nH]c4=O)[C@H](O)[C@@H]3O)C(O)C(O)[C@H]2NC(=O)CCCCCCCC)OC(CO)[C@@H](O)C1O (stereo partly shown)
condition met
CCCCCCCCCCCC(=O)NC1C(OC2OC(C[C@@H](O)[C@H]3O[C@@H](n4ccc(=O)[nH]c4=O)[C@H](O)[C@@H]3O)C(O)C(O)[C@H]2NC(=O)CCCCCCCCCCC)OC(CO)[C@@H](O)C1O (stereo partly shown)
condition not met

Kindly consider the entry below.
Just wondering, is MIC of CCCCCCCCCC(=O)NC1C(OC2OC(C[C@@H](O)[C@H]3O[C@@H](n4ccc(=O)[nH]c4=O)[C@H](O)[C@@H]3O)C(O)C(O)[C@H]2NC(=O)CCCCCCCCC)OC(CO)[C@@H](O)C1O (stereo partly shown) below 0.8 µg/mL?
condition met
